Target: SARS-COV-2 RBD extracellular domain expressed with a C-terminal myc-myc-hexahistidine tag (SARS-CoV-2)
Experiment: SPR (Biacore), mAb captured by anti-human Fc, RBD-mmH in solution, 25 C
assay.readout: kon (M⁻¹ s⁻¹)
Unit M⁻¹ s⁻¹ implied. Number only.

binder: mAb15159 (antibody, V domains shown) VH: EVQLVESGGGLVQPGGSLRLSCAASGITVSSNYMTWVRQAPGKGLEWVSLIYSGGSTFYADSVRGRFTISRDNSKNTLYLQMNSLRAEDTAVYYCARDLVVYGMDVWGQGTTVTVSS VL: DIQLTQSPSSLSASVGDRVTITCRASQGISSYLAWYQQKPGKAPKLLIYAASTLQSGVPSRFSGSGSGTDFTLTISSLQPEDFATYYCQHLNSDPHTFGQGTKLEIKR
kon [M⁻¹ s⁻¹]: 48900

// next entry
Q) // lookup kon for mAb15157 (antibody, V domains shown) VH: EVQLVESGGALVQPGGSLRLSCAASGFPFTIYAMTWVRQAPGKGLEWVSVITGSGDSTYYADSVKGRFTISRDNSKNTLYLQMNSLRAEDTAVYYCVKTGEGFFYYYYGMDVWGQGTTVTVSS VL: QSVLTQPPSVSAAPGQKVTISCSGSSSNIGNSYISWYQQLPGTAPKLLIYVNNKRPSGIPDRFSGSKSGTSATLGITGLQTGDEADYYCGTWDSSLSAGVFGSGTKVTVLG
A) 278000
